B1: IRX6 (parent)
chain: YPCLEKPRIWSLAHTATASAVEGA

Variants of: B1
TEST_PROTOCOL: protein stability index of a GFP-peptide fusion (GPS, HEK-293T) (PSI 1-6); higher = more stable;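 note: lentivirally expressed fusions sorted by FACS into six bins by GFP to DsRed ratio, PSI derived from sequencing read proportions per bin multiplied by bin number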
MEASUREMENT_PARAMETERS: c terminus: a fixed tail appended
METRIC: protein stability index

## Input Data request, read-out protein stability index, for `A24S`
## Output 1.91

## Input Next variant: `S19M`
## Output 2.98

## Input Can you check `R8F` next?
## Output 2.49

## Input Query `E22H` next
## Output 2.05

## Input Also check `E22F`
## Output 3.04

## Input Next up: `W10H`
## Output 4.23

## Input Next variant: `Y1N`
## Output 3.84

## Input Request: `S19E`
## Output 1.97

## Input // next record `T17W`
## Output 2.29

## Input Also `E22G` , if possible.
## Output 3.1

## Input Moving on to `A24I`
## Output 3.09

## Input For `S11L` then?
## Output 1.87

## Input Moving on to the next variant: `P2S`
## Output 1.7

## Input Try this variant too: `S11R`
## Output 2.05

## Input Quick one: `A18D`
## Output 1.78

## Input Another variant to check: `T17Q`
## Output 4.21

## Input Another variant: `T17S`
## Output 1.83

## Input Likewise for `I9V` ?
## Output 3.31

## Input And then `T15L` , what is it?
## Output 1.12

## Input Would you kindly repeat that for `V21Y` ?
## Output 2.29

## Input Do the same for `L12F` please
## Output 2.26

## Input Try this variant too: `C3G`
## Output 2.91
